The reported measurements were obtained from ChEMBL document CHEMBL1127664.

- tested-target: Cholecystokinin receptor type A (Rattus norvegicus, UniProt P30551)
- Sequence (P30551 whole entry): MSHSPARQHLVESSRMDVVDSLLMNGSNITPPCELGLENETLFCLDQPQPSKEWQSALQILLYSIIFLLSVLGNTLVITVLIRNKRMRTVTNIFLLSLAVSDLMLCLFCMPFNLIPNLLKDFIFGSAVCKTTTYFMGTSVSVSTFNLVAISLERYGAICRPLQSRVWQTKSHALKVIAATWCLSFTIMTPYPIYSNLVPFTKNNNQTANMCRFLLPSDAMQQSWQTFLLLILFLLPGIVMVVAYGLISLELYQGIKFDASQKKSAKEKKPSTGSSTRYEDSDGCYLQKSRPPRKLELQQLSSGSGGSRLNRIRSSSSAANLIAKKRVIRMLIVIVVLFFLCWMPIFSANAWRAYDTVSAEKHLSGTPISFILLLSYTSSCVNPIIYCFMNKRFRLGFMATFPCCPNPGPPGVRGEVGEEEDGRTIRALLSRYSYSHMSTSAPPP
- procedure-text: The compound was tested for binding activity against Cholecystokinin type A receptor from rat pancreas using [125]BH CCK-8s as radioligand.
quantity-measured: log10 of IC50 (log10 of the value in nM)
All values: log10 IC50 [nM].

Example entries begin here.
CC(C)CN1C(=O)[C@H](NC(=O)Nc2ccc(-c3nnn[nH]3)cc2)N=C(c2ccccc2)c2ccccc21 :: 2.58
CN1C(=O)[C@@H](NC(=O)Nc2ccc(-c3noc(O)n3)cc2)N=C(c2ccccc2)c2ccccc21 :: 2.99
CN1C(=O)[C@H](NC(=O)Nc2ccc(-c3nc(=O)o[nH]3)cc2)N=C(c2ccccc2)c2ccccc21 :: 1.19
CN1C(=O)[C@H](NC(=O)Nc2ccc(-c3nn[nH]n3)cc2)N=C(c2ccccc2)c2ccccc21 :: 0.79
CN1C(=O)C(NC(=O)Nc2ccc(C(=O)O)cc2)N=C(c2ccccc2)c2ccccc21 (single isomer, unassigned) :: 3.19

Okay, now this molecule:
Kindly note the recorded log10 of IC50 for Cc1ccc(NC(=O)N[C@H]2N=C(c3ccccc3)c3ccccc3N(C)C2=O)cc1 , which is 2.87
